- System: SF-295 CNS
- test.description: NCI tumour cell line growth inhibition, 48 h
Would you mind telling me the reported TGI of each entry?

QUERY: State the recorded TGI for this entry: O=C1/C(=C/c2ccc(Cl)cc2)Oc2cc(O)ccc21
RESULT: > 100 µM

QUERY: Moving on to CC1=NN(C(=O)Cc2ccccc2)C(=O)/C1=C\c1ccc([N+](=O)[O-])cc1
RESULT: > 100 µM

QUERY: Moving on to COc1ccc2c(c1)Oc1cc(O)ccc1[C@H]2c1ccccc1C(=O)NC(C)c1ccccc1 (stereo not given in full)
RESULT: 25.9 µM

QUERY: Moving on to CC(C)(C)COC(=O)C(C)(C)NC(=O)C(CC(=O)OCc1ccccc1)NC(=O)OCc1ccccc1 (stereo not given)
RESULT: > 100 µM

QUERY: Moving on to Cn1cc(C2=C(c3c4n(c5ccccc35)CCNC4)C(=O)NC2=O)c2ccccc21
RESULT: > 25 µM

QUERY: Moving on to COC(=O)[C@H]1COC(=S)N1C(=O)[C@@H](C)[C@H](O)C(C)C
RESULT: > 100 µM

QUERY: Moving on to COC(=O)CN(CC(=O)NCCCBr)C1CCCCC1N(CC(=O)OC)CC(=O)OC (stereo not given)
RESULT: > 100 µM

QUERY: Moving on to N#CC1C[C@@H]2CC3(CCC2CN1C(=O)c1ccccc1)OCCO3 (stereo not given in full)
RESULT: > 100 µM

QUERY: Moving on to N#CC(C#N)=NNc1ccc2cn[nH]c2c1
RESULT: > 100 µM

QUERY: Moving on to COc1cc2c3c(n(CCCN(CCCN(CCCn4c5c(c6ccccc6c4=O)C(=O)c4ccccc4-5)C(=O)OC(C)(C)C)C(=O)OC(C)(C)C)c(=O)c2cc1OC)-c1cc2c(cc1C3=O)OCO2
RESULT: > 100 µM

---

Would you mind telling me the reported TGI of each entry?
- Test system: HT29 colon
- test.description: NCI tumour cell line growth inhibition, 48 h
Where a SMILES comes first, the peptide text is derived from it. The star is where a group is joined. Boc = CC(C)(C)OC(=O)*

QUERY: State the recorded TGI for this entry: Cc1ccc(/C=C/C(=O)Oc2ccc(/C=C3\CCC/C(=C\c4ccc(OC(=O)/C=C/c5ccc(C)cc5)cc4)C3=O)cc2)cc1
RESULT: > 100 µM

QUERY: Moving on to COc1cc(C2c3cc4c(cc3OC(NNc3ccccc3)C2C)OCO4)cc(OC)c1OC (stereo not drawn)
RESULT: 6.61 µM

QUERY: Moving on to CCOC(=O)c1[nH]cc(C)c1-c1cccn1-c1ccc(Cl)cc1[N+](=O)[O-]
RESULT: 30.7 µM

QUERY: Moving on to CN1CCN(Cc2ccc(NC(=O)c3cncc(C#Cc4c(N)ncc5ccc(C#N)cc45)c3)cc2C(F)(F)F)CC1
RESULT: 1.17 µM

QUERY: Moving on to COC(=O)C(Cc1ccccc1)NC(=O)C(CS)NC(=O)OC(C)(C)C (stereo not drawn) (Boc-Cys-Phe-OMe; configuration not given here)
RESULT: > 100 µM

QUERY: Moving on to COc1cc2c(NCCCCCO)ncnc2c(OC)c1OC
RESULT: > 100 µM

QUERY: Moving on to Cc1c(C(=O)O)n2c(=S)[nH]nc2c2ccccc12
RESULT: > 100 µM

QUERY: Moving on to N#CC(C#N)=NNc1ccc2cn[nH]c2c1
RESULT: > 100 µM
